Reference source: patent US6051217

Molecular target: T1, hIL-3 receptor (human, UniProt P26951)
T1 sequence: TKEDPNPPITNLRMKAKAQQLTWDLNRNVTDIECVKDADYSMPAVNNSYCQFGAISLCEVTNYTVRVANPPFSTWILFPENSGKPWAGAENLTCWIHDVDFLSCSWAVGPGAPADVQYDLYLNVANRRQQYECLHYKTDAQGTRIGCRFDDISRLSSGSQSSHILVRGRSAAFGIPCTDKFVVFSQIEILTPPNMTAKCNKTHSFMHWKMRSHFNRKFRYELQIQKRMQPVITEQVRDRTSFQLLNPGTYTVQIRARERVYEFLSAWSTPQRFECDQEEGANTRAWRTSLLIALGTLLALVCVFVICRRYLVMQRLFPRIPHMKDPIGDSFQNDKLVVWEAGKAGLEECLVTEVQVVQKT
Test: cell-based or functional assay
quantityKind: Relative Biological Activity (AML 193 proliferation)

• pMON13423 polypeptide (ligand) MANCSIIIDEIIHHLKRPPNPLLDPNNLNSEDVDILIERNLRTPNLLAFVRAVKHLENASGIEAILRNLQPCLPSATAAPSRHPIIIKAGDWQEFREKLTFYLVTLEQAQEQQ = 0.4 EC50 (1-133)hIL-3 / EC50 mutant
• pMON13403 polypeptide (ligand) MANCSIMIDEIIHHLKRPPNPLLDPNNLNSEDMDILMDSNLRTPNLLAFPHASKQLENASGIEAILRNLQPCLPSATAAPSRHPIIIKAGDWQEFREKLTFYLVTLEQAQEQQ = 0.03 EC50 (1-133)hIL-3 / EC50 mutant
• native human interleukin-3, (1-133)hIL-3 (ligand) MAPMTQTTSLKTSWVNCSNMIDEIITHLKQPPLPLLDFNNLNGEDQDILMENNLRRPNLEAFNRAVKSLQNASAIESILKNLLPCLPLATAAPTRHPIHIKDGDWNEFRRKLTFYLKTLENAQAQQTTLSLAIF = 1 EC50 (1-133)hIL-3 / EC50 mutant

Task item: Quickly give me recorded Relative Biological Activity (AML 193 proliferation) for pMON13287 polypeptide (ligand) MANCSIMIDEIIHHLKRPPAPLLDPNNLNAEDVDILMERNLRLPNLESFVRAVKNLENASGIEAILRNLQPCLPSATAAPSRHPIIIKAGDWQEFREKLTFYLVTLEQAQEQQ
Reply: 26 EC50 (1-133)hIL-3 / EC50 mutant
